B1: ZNF232 (parent)
chain: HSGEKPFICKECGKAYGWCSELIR

# Variants of: B1
# method-summary: protein stability index of a GFP-peptide fusion (GPS, HEK-293T) (PSI 1-6); higher = more stable;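 further: lentivirally expressed fusions sorted by FACS into six bins by GFP to DsRed ratio, PSI derived from sequencing read proportions per bin multiplied by bin number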
# test-settings: c terminus: a fixed tail appended
Is protein stability index at least 2? Then MET. If not, NOT MET.

Here's what some known entries look like.
{"var": "G13A", "discrete-label": "MET"}
{"var": "F7G", "discrete-label": "MET"}
{"var": "A15Q", "discrete-label": "MET"}
{"var": "G17R", "discrete-label": "NOT MET"}
{"var": "G17V", "discrete-label": "NOT MET"}

Input: Dear colleague, could you confirm whether Y16P has protein stability index at or above 2?
Output: NOT MET

Input: Dear colleague, could you confirm whether C19R has protein stability index at or above 2?
Output: NOT MET

Every entry's value here was drawn from the supplement of paper PMC10567573.
